Target: alpha-thrombin (Homo sapiens, UniProt P00734;P00734 P00734:328-363,P00734:364-622)
Assay: filter; ±4.6; Fbmax 95.6; same buffer, 22 C
Measured Quantity: pKd
Remember, pKd is on a log scale: it is -log10 of the molar concentration.

Value lookup for pKd; key = Clone 1 (ssRNA) RNA: GGAGAGAGAAGGAGAACGAGCUGUUACUCACAAAAUAGCGAAGACUAAGUGACACAAAGCCCGG 7.35
